- system.name: PI3Kδ (p110δ/p85α) Recombinant Human Protein (Homo sapiens (Human), UniProt O00329)
- Sequence (O00329 whole entry): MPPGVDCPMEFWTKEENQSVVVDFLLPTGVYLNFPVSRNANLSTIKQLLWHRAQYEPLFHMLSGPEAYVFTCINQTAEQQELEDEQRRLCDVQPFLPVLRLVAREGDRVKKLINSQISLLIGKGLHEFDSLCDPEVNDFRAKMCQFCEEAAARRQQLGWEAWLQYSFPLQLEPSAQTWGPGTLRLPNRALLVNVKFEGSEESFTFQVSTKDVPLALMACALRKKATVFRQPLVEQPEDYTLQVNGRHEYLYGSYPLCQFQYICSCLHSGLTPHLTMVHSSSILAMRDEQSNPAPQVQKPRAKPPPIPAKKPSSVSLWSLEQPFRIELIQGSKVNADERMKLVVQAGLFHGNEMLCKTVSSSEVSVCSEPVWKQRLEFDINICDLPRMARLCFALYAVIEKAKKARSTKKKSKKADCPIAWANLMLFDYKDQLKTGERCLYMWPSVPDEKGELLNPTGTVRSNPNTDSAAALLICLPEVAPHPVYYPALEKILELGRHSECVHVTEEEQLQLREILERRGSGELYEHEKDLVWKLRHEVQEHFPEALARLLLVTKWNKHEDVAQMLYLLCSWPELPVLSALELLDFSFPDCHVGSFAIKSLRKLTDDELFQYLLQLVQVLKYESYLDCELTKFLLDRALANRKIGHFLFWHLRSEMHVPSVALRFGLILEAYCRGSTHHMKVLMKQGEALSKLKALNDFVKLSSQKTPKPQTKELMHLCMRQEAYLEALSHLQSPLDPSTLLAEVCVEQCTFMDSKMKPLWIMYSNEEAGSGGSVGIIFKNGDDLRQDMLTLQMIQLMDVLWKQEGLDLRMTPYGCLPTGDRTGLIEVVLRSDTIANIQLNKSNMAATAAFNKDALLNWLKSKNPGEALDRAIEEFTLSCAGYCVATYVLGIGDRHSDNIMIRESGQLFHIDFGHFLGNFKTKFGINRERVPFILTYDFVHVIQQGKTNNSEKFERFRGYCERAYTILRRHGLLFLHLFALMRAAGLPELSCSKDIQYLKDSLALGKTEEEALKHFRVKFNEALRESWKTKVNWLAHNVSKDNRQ
- Sequence (P27986 whole entry partner): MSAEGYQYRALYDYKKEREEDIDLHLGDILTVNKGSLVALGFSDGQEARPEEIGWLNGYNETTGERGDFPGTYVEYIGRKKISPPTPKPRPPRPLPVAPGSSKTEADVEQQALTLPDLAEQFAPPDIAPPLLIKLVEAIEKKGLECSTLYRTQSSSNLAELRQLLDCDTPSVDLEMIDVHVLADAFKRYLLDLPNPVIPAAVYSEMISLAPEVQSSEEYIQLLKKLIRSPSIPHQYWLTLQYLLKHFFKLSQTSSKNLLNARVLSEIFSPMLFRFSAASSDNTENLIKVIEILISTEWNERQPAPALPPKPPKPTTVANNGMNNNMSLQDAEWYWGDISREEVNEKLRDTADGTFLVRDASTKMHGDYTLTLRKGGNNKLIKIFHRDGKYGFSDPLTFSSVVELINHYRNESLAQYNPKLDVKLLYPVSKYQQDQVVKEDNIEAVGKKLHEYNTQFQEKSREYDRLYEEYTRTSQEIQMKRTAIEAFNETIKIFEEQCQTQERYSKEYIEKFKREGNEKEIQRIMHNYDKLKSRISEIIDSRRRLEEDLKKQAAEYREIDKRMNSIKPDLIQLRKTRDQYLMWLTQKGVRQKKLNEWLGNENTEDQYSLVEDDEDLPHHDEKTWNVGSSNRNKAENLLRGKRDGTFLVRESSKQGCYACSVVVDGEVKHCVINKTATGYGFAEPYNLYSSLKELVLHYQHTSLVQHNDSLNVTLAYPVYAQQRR
- procedure.details: PI3Kδ Scintillation Proximity Assay
- conditions: 20 μM PIP2, 2 μM ATP, 3.4 nM PI3Kδ, 120 min, room temperature
Where a name gives a salt, the structure may show the parent alone.
Reported IC50 values for the following compounds.

- compound: "CNC(=O)C12CC(NS(=O)(=O)c3ccc(C)c(-c4cnc(N)c(-n5cncn5)n4)c3)(C1)C2 [Example 32, trifluoroacetate Salt]"
  IC50: "< 2000 nM"
- compound: "Cc1ccc(S(=O)(=O)NC23CC(C(=O)NCC(F)(F)F)(C2)C3)cc1-c1cnc(N)c(-n2cncn2)n1 [Example 35, trifluoroacetate salt]"
  IC50: "≤ 500 nM"
- compound: "Cc1ccc(S(=O)(=O)NC23CC(C#N)(C2)C3)cc1-c1cnc(N)c(-c2ncn(C)n2)n1 [Example 45, Trifluoroacetate Salt]"
  IC50: "≤ 500 nM"
- compound: "[2H]C([2H])([2H])c1ccc(S(=O)(=O)NC23CCC(C#N)(C2)C3)cc1-c1cnc(N)c(-c2cnc(C)s2)n1 [Example 65, trifluoroacetate salt]"
  IC50: "≤ 100 nM"
- compound: "CCOC(=O)NC12CC(NS(=O)(=O)c3ccc(C)c(-c4cnc(N)c(-n5cncn5)n4)c3)(C1)C2 [Example 39, Trifluoroacetate Salt]"
  IC50: "≤ 500 nM"
- compound: "Cc1ccc(S(=O)(=O)NC23CCC(C#N)(C2)C3)cc1-c1cnc(N)c(-n2nccn2)n1 [Example 42, Trifluoroacetate Salt]"
  IC50: "≤ 500 nM"

* * *

- system.name: PI3Kδ (p110δ/p85α) Recombinant Human Protein (Homo sapiens (Human))
- procedure.details: PI3Kδ Scintillation Proximity Assay
- conditions: 20 μM PIP2, 2 μM ATP, 3.4 nM PI3Kδ, 120 min, room temperature
Structures can show the parent of a compound that is named as a salt.
Item-by-item account of IC50

- compound: "Cc1ncc(-c2nc(-c3cc(S(=O)(=O)NC45CCC(CO)(CC4)OC5)ccc3C)cnc2N)s1 [Example 6, trifluoroacetate salt]"
  IC50: "≤ 100 nM"
- compound: "[2H]C([2H])([2H])c1ccc(S(=O)(=O)NC23CC(CO)(C2)C3)cc1-c1cnc(N)c(-c2ccncn2)n1 [Example 81, trifluoroacetate salt]"
  IC50: "≤ 100 nM"
- compound: "[2H]C([2H])([2H])c1ccc(S(=O)(=O)NC23CNC(C2)C3)cc1-c1cnc(N)c(-n2nccn2)n1 [Example 52, Trifluoroacetate Salt]"
  IC50: "≤ 500 nM"
- compound: "Cc1ncc(-c2nc(-c3cc(S(=O)(=O)NC45CCC(O)(CC4)C5)ccc3C)cnc2N)s1 [Example 7, trifluoroacetate salt]"
  IC50: "≤ 100 nM"
- compound: "[2H]C([2H])([2H])c1ccc(S(=O)(=O)NC23CCN(CC2)C3)cc1-c1cnc(N)c(-c2cnco2)n1"
  IC50: "≤ 500 nM"
- compound: "Cc1ccc(S(=O)(=O)NC23CNC(C2)C3)cc1-c1cnc(N)c(-c2ncn(C)n2)n1 [Example 57, trifluoroacetate salt]"
  IC50: "≤ 100 nM"
- compound: "[2H]C([2H])([2H])c1ccc(S(=O)(=O)NC23CC(C#N)(C2)C3)cc1-c1cnc(N)c(-c2ccncn2)n1 [Example 79, Trifluoroacetate Salt]"
  IC50: "≤ 100 nM"
- compound: "Cc1ncc(-c2cc(-c3cc(S(=O)(=O)NC45CC(CO)(C4)C5)ccc3C)cnc2N)s1"
  IC50: "≤ 100 nM"
- compound: "[2H]C([2H])([2H])c1ccc(S(=O)(=O)NC23COC(CO)(C2)C3)cc1-c1cnc(N)c(-c2cnc(C3CC3)s2)n1 [Example 61, Trifluoroacetate Salt]"
  IC50: "≤ 100 nM"
- compound: "Cc1ccc(S(=O)(=O)NC23CCC(C#N)(C2)C3)cc1-c1cnc(N)c(-n2ccnn2)n1 [Example 44, Trifluoroacetate Salt]"
  IC50: "≤ 100 nM"
- compound: "Cc1ccc(S(=O)(=O)NC23CC(C#N)(C2)C3)cc1-c1cnc(N)c(-n2nccn2)n1 [Example 41, Trifluoroacetate Salt]"
  IC50: "≤ 100 nM"
- compound: "Cc1ncc(-c2nc(-c3cc(S(=O)(=O)NC45COC(CO)(C4)C5)cc(F)c3C)cnc2N)s1 [Example 9, trifluoroacetate Salt]"
  IC50: "≤ 100 nM"
- compound: "Cc1ncc(-c2nc(-c3cc(S(=O)(=O)NC45CC(C#N)(C4)C5)ccc3C)cnc2N)s1 [Example 1, Trifluoroacetate Salt]"
  IC50: "≤ 100 nM"
